- MEASUREMENT DESCRIPTION: soluble on expression in E. coli; label from the status in PepcDB or PDB records
REPORTED ENDPOINT: soluble on expression in E. coli

[
  {
    "PRIMARY SEQUENCE": "MSLSDLITLAQLSQGYRYNSDSLILADFILKQGIKGAVFDVGAGCGIIGILLKKNIANLSLSLIDIQKENIELIEKNLKSNKIQGDIFHDDFNQFQIIKKFDFIVCNPPFYRQGAYKSEDQHKAISKFQEFLPLHSFLAKTNSMLKPNGTLYFCYEALALDEICFILKDMKMKITKLCFVHTHQSKKARLVLIQVKKGSKSPCEILPPFFVYENEILSKQMQEIHLRFRLKSYDEGHHHHHH",
    "REPORTED ENDPOINT": "soluble on expression in E. coli",
    "OBSERVED VALUE": "soluble"
  },
  {
    "PRIMARY SEQUENCE": "SNAMNASAVETIYESTEDKAALTSVVDLVKLSDQYRQSAILHYAVADKLFDLTQTGRTPAEVAASFGMVEGKAAILLHALAALGLLTKEGDAFRNTALTERYLTTTSADYIGPIVEHQYLQWDNWPRLGEILRSEKPLAFQQESRFAHDTRARDAFNDAMVRLSQPMVDVVSELGVFARARTVIDLAGGHGTYLAQVLRRHPQLTGQIWDLPTTRDAARKTIHAHDLGGRVEFFEKNLLDARNFEGGAADVVMLNDCLHYFDAREAREVIGHAAGLVKPGGALLILTMTMNDDRVTPALSADFSLHMMVNTNHGELHPTPWIAGVVRDAGLAVGERSIGRYTLLIGQRSSGE",
    "REPORTED ENDPOINT": "soluble on expression in E. coli",
    "OBSERVED VALUE": "soluble"
  },
  {
    "PRIMARY SEQUENCE": "MGVCRICGLSLDEISDSIGVCLECLRKGNLDFARKAHRKWREEIGLPVERWAREEGKVCFLCVNSCVIPEGKTGFCGVLRNEGGRLSYITGSHRKAFLHWYYDPHPTNCVALPICPEREHRGFYNFAVFFAGCNLDCLFCQNIDHKYMVKDGRISEGKIVDIDELVEIAMKPRVSCVCFFGGDPTPWTVFALEFAVKLGNRRRICWETNGLAHPRIMERMARVSLESGGIVKIDWKAFSPEVYEALTGVDGKSAVRRIMENVQLVSSMGKGREIPLLVISVLVIPHYIDEKEIEGIAGFISSVDPEIPLVLLAFAPQHLMSDLPTTRKHHMERVKQKALEKGLKRVFVENVWLLS",
    "REPORTED ENDPOINT": "soluble on expression in E. coli",
    "OBSERVED VALUE": "not soluble"
  },
  {
    "PRIMARY SEQUENCE": "MGSDKIHHHHHHMYSIVEGDRVLEIGFMEHFMFLDFPTLVDIPIGLPKKGERECDRLTRRILSKRAASVFTVPCRVAVYRESYEDALRVNRECQGKGFPVQFWHIVEKVREVDVFLRSYPDLSDQIRESHPELCFLRISSKMMKSKHTREGLNQRIEILREHLVFDVENLQRICREYRIHIHDVLDSLVLALAQQFPLERIPEDPPLDEHGLPMQIIAPARTQRSPNPE",
    "REPORTED ENDPOINT": "soluble on expression in E. coli",
    "OBSERVED VALUE": "not soluble"
  },
  {
    "PRIMARY SEQUENCE": "MAHHHHHHMTVGAAALCEYYGYLPRLVRHTGLLPSTRTSVTSSMAATVLQSSLYEADPSPPVRSGEFELPSTYSLHKPLVYDIAALPPKPVSSLRLVIISDTHERHREMSVPNGDVLVHCGDIQEGLNFVRDVKAMLIDFSAWFTDSALHPHPVKLIIAGNHDKAIAAMSTEDVRRLFAPAVYLCEDSVVVEPAGVRFYGSPRSISNSRWSPNTAFQGKKAWKRFVFASARQDDEAGAVSTASRCSSEQPLRSRLEGATPGGPVDVLVVHQSPDIPRAHHSVSEQPICAYAQQVAPRRVLLCGHLHGAHGMHRLPVPEHVRKSFRIATRGGGGQPEGVVRMDEIPHLPCINAAMMTGRFGQNVLLPPSVVDLEL",
    "REPORTED ENDPOINT": "soluble on expression in E. coli",
    "OBSERVED VALUE": "not soluble"
  }
]
